targetDesc: RSV prefusion F (preF), DS-Cav1 (Respiratory Syncytial Virus)
testDetails: BLI, IgG on anti-human IgG sensor, 100 nM antigen
measurementKind: log10(Kd) (log10 of the value in nM)
Reminder: these figures are log10 of reported Kd, in nM before transformation.

Take a look at these entries with their results.
INSERT INTO results (binder, observedvalue) VALUES
  ('ADI-41198 (antibody, V domains shown) VH: EVQLVQSGGVVIQPGGSLRLSCAASGFSFDEYLMHWVRQLPGKGLEWVALISWHGDITYYADSVKGRFTISRDNSRYSLYLQMNSLRSDDTALYYCVKDGWIEGAFNHTFGIGYYFENWGQGTLVTVSS VL: DIVLTQTPSSLSASVGDRVTITCQASQDINNCLNWYQQKPGKAPEVLIFDASNLETGVPLRFSGSGSGTHFTLTISSLQPEDIATYYCQQHENVPLTFGGGTKVEIK', -0.12),
  ('ADI-41216 (antibody, V domains shown) VH: EVQLVESGGGLVKPGESLRLSCAASGFRFSDHYMSWIRQAPGKGLEWISYISSSSSYIHYADSVTGRFTISRDNAKNSMYLQMNSLRAEDTAVYYCAREIGRSYYMDVWGKGTTVTVSS VL: QSALIQPPSVSGAPGQRVTISCTGSSSNIGAGYDVHWYQQLPGTAPKLLIYGNNNRPSGVPDRFSASKSGISASLAITGVQTEDEADYYCQSYDRSLSEFYVFGSGTKVTVL', -0.04),
  ('ADI-41186 (antibody, V domains shown) VH: EVQLLESGAEVKKPGESLKISCKGSGYSFSSYWIAWVRQMPGKGLEWMGIIYPSDSDTKYSPSFQGQVTISADKSISTAYLQWSSLKASDTAMYYCARQAGIQRPLDYWGQGTLVTVSS VL: EIVMTQSPATLSVSPGERATLSCRASQSVRSNLAWYQQKPGQAPRLLIYDASTRATGISARFSGSGSGTEFTLTISSLQSEDFAVYYCQQFHNWPPYTFGQGTKVEIK', 0.48),
  ('ADI-41182 (antibody, V domains shown) VH: QVQLVQSGAEVKKPGESLKISCQGSGYSFTSYWIGWVRQMPGKDLEWMGIIYPSDSDTRYSPSFQGQVTISVDKSINTAYLQWTSLKASDTAMYYCARCDGAVYWYFDLWGRGTLVTVSS VL: EIVLTQSPATLSVSPGERVTLSCRASRSVSSHLAWYQQKPGQAPRLLMYGASTRATGIPARFSGSGSGTEFTLTISSLQSEDFGVYYCQQYNNWPPALTFGGGTKLEIK', 0.41),
  ('ADI-41201 (antibody, V domains shown) VH: EVQLLESGGGLVQPGGSLRLSCAASGFAFDIYSMNWVRQAPGKGLEWLSYISSRGETIYYADSVKGRFTISRDNARNSLYLQMNGLRDEDTATYYCYYYGSGISSHGGAFDYWGQGTLVTVSS VL: DIVMTQTPATLSLSPGERATLTSRASQSVSSFLAWYQQKPGQAPRLLIYDVSNRATGVPARFSGSGSGTDFTLTISSLEPEDIAVYYCQQRNTWPAITFGQGTKVEIK', 0.58),
  ('ADI-41196 (antibody, V domains shown) VH: EVQLVESGGGLVQPGGSLRLSCIVSGFPFNTYAMSWVRQAPGKGLEWVSVVSASGGNTDYADSVKGRFTISRDNSKKTLYLQMNSLRAEDTAVYYCARTESNTLAPSWSGRYVTDWYFDLWGRGTLVTVSS VL: EIVMTQSPSSLSASVGDRVTITCRASQSISSFLNWYQQKPGKAPKLLISAASSLQSGVPSRFSGSGSGTDFTLTISSLQPEDFATYYCQQSYSIPTFGQGTRLEIK', 0.47);

Exam item: Fill in the blank: the reported log10(Kd) of ADI-41210 (antibody, V domains shown) VH: QVQLVQSGAEVKKPGASVKVSCKASGYTFNNYGISWVRQAPGQGLEWMGWISAYNGDIKYAQKFQGRVTVTTDTSTSTAYMELRSLRSDDTAVYYCARDTPVGGGTQTFDYWGQGTLVTVSS VL: ETTLTQSPLSLPVTLGQPASISCRSSQSLVHSNGNTYLNWFQQRPGQSPRRLIYTVSNRDSGVPDRFSGSGSGTDFTLKISRVEAEDVGVYYCMQATHRPGTFGQGTKVEIK is ____.
Marked response: -0.33

Exam item: Using the record for ADI-41188 (antibody, V domains shown) VH: QVQLQQWGAGLLKSSETLSLTCAVYGGSFSGYYWSWIRQSPGKGLEWIGEINHSGSANYNPSLKNRVTISRDTSKNQFSLWLSSVTAADTAVYYCARTSRSPEPDNYYYYMDVWGRGTTVTVSS VL: QSVLTQPPSVSGAPGQRVSISCTGSSSDIGAGYDVHWYQQFPGTAPKLLMYANNNRPSGVPDRFSGSRSGTSASLAITGLQAEDEADYYCQSYDSNLDVVVFGGGTKLTVL , report its log10(Kd).
Marked response: -0.65

Exam item: Return reported log10(Kd); argument: ADI-41169 (antibody, V domains shown) VH: EVQLVESGAEVKKPGESLKISCEAFGYSFTSYWIGWVRQVPGRGLEWIGVIYPGDSDIRYTPSFRGQVTISADRSISTAYLQWNNLKASDTAMYYCARPGRDINYYHSRDYGALDIWGQGTTVTVSS VL: DIQLTQSPDSLAVSLGERVTINCKSSQSFLYSSNNKNYLAWYQQKPGQPPKLLIYWASVRESGVPDRFSGSGSGTDFTLTISSLQAEDVAVYYCQEYYSPPMFTFGQGTKVEIK
Marked response: 0.69

Exam item: Which log10(Kd) value is on record for ADI-41175 (antibody, V domains shown) VH: EVQLLESGGGVVQPGRSLRLSCATSGFTFSSYGMHWVRQAPGKGLEWVAVIYYEGSNKYYGDSVKGRFTISRDNSKSTLYLQMNRLRAEDTAVYYCARRPAGGFDYWGPGTLVTVSS VL: EIVMTQSPLSLPVTPGEPASISCRSSQNLLNSNGYNYLDWYLQKPGQSPQLLIYLGSNRASGVPDRFSGSGSGTDFTLKISRVEAEDVGVYYCMQALQTPYTFGQGTKLEIK ?
Marked response: 0.63
